# subjectOfTest: Alpha-1D adrenergic receptor (Homo sapiens, UniProt P25100)
# Sequence (P25100 whole entry): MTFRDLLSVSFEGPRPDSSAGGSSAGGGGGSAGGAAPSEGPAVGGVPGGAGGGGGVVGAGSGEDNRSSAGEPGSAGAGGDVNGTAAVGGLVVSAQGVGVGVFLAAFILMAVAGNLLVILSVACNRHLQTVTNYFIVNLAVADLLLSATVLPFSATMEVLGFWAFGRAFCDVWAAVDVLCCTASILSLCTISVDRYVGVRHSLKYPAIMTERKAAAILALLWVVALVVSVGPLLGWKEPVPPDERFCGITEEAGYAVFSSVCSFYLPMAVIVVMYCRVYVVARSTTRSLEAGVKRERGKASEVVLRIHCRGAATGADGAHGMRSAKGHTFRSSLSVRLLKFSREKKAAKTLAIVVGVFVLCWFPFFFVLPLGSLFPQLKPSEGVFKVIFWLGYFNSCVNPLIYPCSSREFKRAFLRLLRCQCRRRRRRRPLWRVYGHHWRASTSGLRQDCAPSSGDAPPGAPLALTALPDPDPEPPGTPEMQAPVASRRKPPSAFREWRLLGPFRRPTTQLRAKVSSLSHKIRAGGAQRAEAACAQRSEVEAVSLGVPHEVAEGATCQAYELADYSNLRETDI
# protocol: In vitro activation of human alpha-1D receptor expressed in rat-1 fibroblasts via calcium using mobilization through the Gq coupled PLC pathway as functional assay
pEC50: −log10 of the molar value.
Please provide measured pEC50 for the entries that follow.

Query: pEC50 for c1csc(-c2ccccc2NCC2=NCCN2)c1 ?
Result: 7.74

Query: pEC50 for CO/N=C(\C)c1ccccc1NCC1=NCCN1 ?
Result: < 5.30

Query: pEC50 for Cc1ccsc1-c1ccccc1NCC1=NCCN1 ?
Result: 7.31

Query: pEC50 for c1ccc(-c2ncco2)c(NCC2=NCCN2)c1 ?
Result: 8.30

Query: pEC50 for Cc1nc(-c2ccccc2NCC2=NCCN2)cs1 ?
Result: < 5.30

Query: pEC50 for Cc1cccnc1-c1ccccc1NCC1=NCCN1 ?
Result: < 4.00

Query: pEC50 for Cc1nc(-c2ccccc2NCC2=NCCN2)co1 ?
Result: < 5.30

Query: pEC50 for c1cnc(-c2ccccc2NCC2=NCCN2)nc1 ?
Result: 7.09

Query: pEC50 for Cc1ccc(-c2ccccc2NCC2=NCCN2)o1 ?
Result: < 5.70

Query: pEC50 for Cc1ncoc1-c1ccccc1NCC1=NCCN1 ?
Result: < 4.00

Query: pEC50 for Cc1nc(-c2ccccc2NCC2=NCCN2)no1 ?
Result: < 5.30

Query: pEC50 for c1ccc(-c2cnco2)c(NCC2=NCCN2)c1 ?
Result: < 5.30

Query: pEC50 for c1coc(-c2ccccc2NCC2=NCCN2)c1 ?
Result: 7.79

Query: pEC50 for Cc1ccc(-c2ccccc2NCC2=NCCN2)s1 ?
Result: < 4.00

Query: pEC50 for Cc1noc(-c2ccccc2NCC2=NCCN2)n1 ?
Result: < 5.30

Query: pEC50 for CCO/N=C(\C)c1ccccc1NCC1=NCCN1 ?
Result: < 5.30

Query: pEC50 for CO/N=C/c1ccccc1NCC1=NCCN1 ?
Result: < 5.30

Query: pEC50 for c1ccc(-c2ccccc2NCC2=NCCN2)nc1 ?
Result: 7.38
